Source of measurements: ChEMBL document CHEMBL4477270

# TARGET OF ASSAY: Histone-lysine N-methyltransferase EZH2 (Homo sapiens)
# PROTOCOL DETAILS: Inhibition of EZH2 (unknown origin) using biotin-labeled histone substrate assessed as residual activity at 50 uM in presence of [3H-Me]SAM by scintillation proximity assay relative to control

[
  {
    "COMPOUND": "O=C(c1cccc(Br)c1)N1CC[C@@H]2[C@@H](CC3CCCCN32)C1 (some centres undefined)",
    "TARGET OF ASSAY": "Histone-lysine N-methyltransferase EZH2 (Homo sapiens)",
    "Activity / %": 86
  },
  {
    "COMPOUND": "CN1CCCC2(CCCN2C(=O)c2cccc(Br)c2)C1 (centres undefined)",
    "TARGET OF ASSAY": "Histone-lysine N-methyltransferase EZH2 (Homo sapiens)",
    "Activity / %": 90
  },
  {
    "COMPOUND": "CN1CCC2(CCCN2C(=O)c2cccc(Br)c2)CC1",
    "TARGET OF ASSAY": "Histone-lysine N-methyltransferase EZH2 (Homo sapiens)",
    "Activity / %": 93
  },
  {
    "COMPOUND": "O=C(c1cccc(Br)c1)N1C[C@@H]2CC3CCCCN3[C@@H]2C1 (some centres undefined)",
    "TARGET OF ASSAY": "Histone-lysine N-methyltransferase EZH2 (Homo sapiens)",
    "Activity / %": 92
  },
  {
    "COMPOUND": "O=C(c1cccc(Br)c1)N1C[C@@H]2CC3CCCN3[C@@H]2C1 (some centres undefined)",
    "TARGET OF ASSAY": "Histone-lysine N-methyltransferase EZH2 (Homo sapiens)",
    "Activity / %": 90
  },
  {
    "COMPOUND": "O=C(c1cccc(Br)c1)N1CCC2CNCC2C1 (centres undefined)",
    "TARGET OF ASSAY": "Histone-lysine N-methyltransferase EZH2 (Homo sapiens)",
    "Activity / %": 98
  },
  {
    "COMPOUND": "CN1CCC[C@@H]2CN(C(=O)c3cccc(Br)c3)C[C@@H]21",
    "TARGET OF ASSAY": "Histone-lysine N-methyltransferase EZH2 (Homo sapiens)",
    "Activity / %": 90
  },
  {
    "COMPOUND": "O=C(c1cccc(Br)c1)N1CCC2(CCNCC2)CC1",
    "TARGET OF ASSAY": "Histone-lysine N-methyltransferase EZH2 (Homo sapiens)",
    "Activity / %": 88
  },
  {
    "COMPOUND": "CN1CCCC12CCCN(C(=O)c1cccc(Br)c1)C2 (centres undefined)",
    "TARGET OF ASSAY": "Histone-lysine N-methyltransferase EZH2 (Homo sapiens)",
    "Activity / %": 88
  },
  {
    "COMPOUND": "O=C(c1cccc(Br)c1)N1CC[C@H]2NCC[C@H]2C1",
    "TARGET OF ASSAY": "Histone-lysine N-methyltransferase EZH2 (Homo sapiens)",
    "Activity / %": 98
  },
  {
    "COMPOUND": "CN1CCC2(CC1)CCN(C(=O)c1cccc(Br)c1)CC2",
    "TARGET OF ASSAY": "Histone-lysine N-methyltransferase EZH2 (Homo sapiens)",
    "Activity / %": 87
  },
  {
    "COMPOUND": "CN1CCCCC12CCN(C(=O)c1cccc(Br)c1)CC2",
    "TARGET OF ASSAY": "Histone-lysine N-methyltransferase EZH2 (Homo sapiens)",
    "Activity / %": 88
  },
  {
    "COMPOUND": "CN1CC[C@H]2CN(C(=O)c3cccc(Br)c3)C[C@H]21",
    "TARGET OF ASSAY": "Histone-lysine N-methyltransferase EZH2 (Homo sapiens)",
    "Activity / %": 87
  },
  {
    "COMPOUND": "CN1CCCC2(CCCN(C(=O)c3cccc(Br)c3)C2)C1 (centres undefined)",
    "TARGET OF ASSAY": "Histone-lysine N-methyltransferase EZH2 (Homo sapiens)",
    "Activity / %": 90
  },
  {
    "COMPOUND": "CN1C[C@H]2CCCN(C(=O)c3cccc(Br)c3)[C@H]2C1",
    "TARGET OF ASSAY": "Histone-lysine N-methyltransferase EZH2 (Homo sapiens)",
    "Activity / %": 91
  },
  {
    "COMPOUND": "CN1CCCC12CCN(C(=O)c1cccc(Br)c1)CC2",
    "TARGET OF ASSAY": "Histone-lysine N-methyltransferase EZH2 (Homo sapiens)",
    "Activity / %": 95
  },
  {
    "COMPOUND": "O=C(c1cccc(Br)c1)N1C[C@@H]2CCN[C@@H]2C1",
    "TARGET OF ASSAY": "Histone-lysine N-methyltransferase EZH2 (Homo sapiens)",
    "Activity / %": 85
  },
  {
    "COMPOUND": "CN1CCC2(CCCN(C(=O)c3cccc(Br)c3)C2)C1 (centres undefined)",
    "TARGET OF ASSAY": "Histone-lysine N-methyltransferase EZH2 (Homo sapiens)",
    "Activity / %": 97
  },
  {
    "COMPOUND": "O=C(c1cccc(Br)c1)N1CCCC2(CCCCN2)C1 (centres undefined)",
    "TARGET OF ASSAY": "Histone-lysine N-methyltransferase EZH2 (Homo sapiens)",
    "Activity / %": 96
  },
  {
    "COMPOUND": "C[N+]1(C)CCCCC12CCN(C(=O)c1cccc(Br)c1)CC2",
    "TARGET OF ASSAY": "Histone-lysine N-methyltransferase EZH2 (Homo sapiens)",
    "Activity / %": 90
  },
  {
    "COMPOUND": "O=C(c1cccc(Br)c1)N1CCC[C@@H]2CNC[C@@H]21",
    "TARGET OF ASSAY": "Histone-lysine N-methyltransferase EZH2 (Homo sapiens)",
    "Activity / %": 94
  },
  {
    "COMPOUND": "O=C(c1cccc(Br)c1)N1C[C@H]2CCCN[C@H]2C1",
    "TARGET OF ASSAY": "Histone-lysine N-methyltransferase EZH2 (Homo sapiens)",
    "Activity / %": 103
  },
  {
    "COMPOUND": "O=C(c1cccc(Br)c1)N1CCCC2(CCNCC2)C1",
    "TARGET OF ASSAY": "Histone-lysine N-methyltransferase EZH2 (Homo sapiens)",
    "Activity / %": 88
  },
  {
    "COMPOUND": "CN1CCCCC12CCCN(C(=O)c1cccc(Br)c1)C2 (centres undefined)",
    "TARGET OF ASSAY": "Histone-lysine N-methyltransferase EZH2 (Homo sapiens)",
    "Activity / %": 91
  }
]
